For each of the compounds below, state its max response.
test: qHTS Assay for Identifying Gametocytocidal Compounds (AID 743244);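 also: % is scaled to controls: 0 for no effect and ±100 for the full control effect; actives lower the fluorescent signal which means gametocytes are killed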; conditions: P. falciparum 3D7 stage III-V gametocytes, alamarBlue, 72 h; active compounds read low
Inconclusive results are not listed.
Numbers only, in %.

# example entries with known answers
>>> print(df.to_string())
                                        mol  experimental_readout  u  endpoint_value
0                                 C=CC(=O)O          max response  %           -1.82
1  CC(=O)Oc1cccc2c1C(=O)c1c(OC(C)=O)cc(C(=O)O)cc1C2=O          max response  %           -7.57
2  CC(C)CCC[C@@H](C)[C@H]1CC[C@H]2[C@@H]3CC=C4C[C@@H](O)CC[C@]4(C)[C@H]3CC[C@]12C          max response  %          -0.629

// moving on: another record for max response
Record summary for CC(C)CCC[C@@H](C)[C@H]1CC(=O)C2=C3CC[C@H]4C[C@@H](O)CC[C@]4(C)[C@H]3CC[C@@]21C : reported max response = 5.28

---

test system: CP194; assay: qHTS profiling for inhibitors of Plasmodium falciparum proliferation (AID 504749); also: nearly all actives have a fitted effect of over 60% in size; details: P. falciparum in erythrocytes, SYBR Green DNA, 72 h; series mostly up to 28.7 µM
Inconclusive results are not listed. The source made the active and inactive calls. Calls come from the whole dose curve; as a rule, active = well fitted inhibition curve with a large enough effect; inconclusive = small, poorly fitted or top-dose-only effect; inactive = flat fitted curve, though single readings scatter.
Respond only with the outcome that fits, drawn from 1 (yes) (active), 0 (no) (inactive)

Compound	Discrete Label
N=C(N)c1ccc(/C=C/c2ccc(C(=N)N)cc2O)cc1	1 (yes)

Request: # lookup: test call for NC(=O)CC[C@@H]1NC(=O)[C@H](Cc2ccccc2)NC(=O)[C@H](Cc2ccc(O)cc2)NC(=O)[C@@H](N)CSSC[C@@H](C(=O)N2CCC[C@H]2C(=O)N[C@@H](CCCN=C(N)N)C(=O)NCC(N)=O)NC(=O)[C@H](CC(N)=O)NC1=O
Result: 0 (no)

Request: Per the assay record, what outcome was assigned to CC1CCC(NC(=O)N(CCCl)N=O)CC1 (centres undefined) ?
Result: 0 (no)

Request: // return assay outcome for O=P(O)(O)OP(=O)(O)O
Result: 0 (no)

---

assay: Drug repurposing screens with cells derived from glioblastoma tumor samples (AID 1345199); settings: GBM patient neurospheres viability, ATP luminescence, 48 h; at 46 µM (top of the series); tumour line A; also: % is scaled to controls: 0 for no effect and ±100 for the full control effect; nearly all actives have a fitted effect of over 40% in size
Inconclusive results are not listed.
Experimental Readout: activity, negative = cell killing (%)
Numbers only, in %.

Worked cases, activity, negative = cell killing given:
Mol	Endpoint Value
NCC[C@H](O)C(=O)N[C@@H]1C[C@H](N)[C@@H](O[C@H]2O[C@H](CN)CC[C@H]2N)[C@H](O)[C@H]1O[C@H]1O[C@H](CO)[C@@H](O)[C@H](N)[C@H]1O	-19.6
Cc1c(O)c(=O)ccn1C	-29.8
CC(C)[C@@H]1CC[C@@H](C)C[C@H]1OC(=O)c1ccccc1O	-21.2
O=C(O)[C@H]1CN(C/C=C/P(=O)(O)O)CCN1	-25.5

API: the following record is the query input.
Data point: CN1C(=O)C[C@@H](C(=O)N[C@@H](Cc2cnc[nH]2)C(=O)N2CCC[C@H]2C(N)=O)NC1=O ; activity, negative = cell killing = -26.4

---

system: W2; experiment: qHTS profiling for inhibitors of Plasmodium falciparum proliferation (AID 504749); also: nearly all actives have a fitted effect of over 60% in size; conditions: P. falciparum in erythrocytes, SYBR Green DNA, 72 h; series mostly up to 28.7 µM
Records with an inconclusive call do not appear. The source made the active and inactive calls. Calls come from the whole dose curve; as a rule, active = well fitted inhibition curve with a large enough effect; inconclusive = small, poorly fitted or top-dose-only effect; inactive = flat fitted curve, though single readings scatter.
Parameter call: string, one of active, inactive

Compound	Discrete Label
CC1C(=O)CC2C3(C)CCC2(C(C)C(=O)O)C(=O)C13 (configuration not stated)	inactive
CCN(CC)CCC(=O)N1c2ccccc2Sc2ccc(Cl)cc21	active
OCC1(CO)COC(C(Cl)(Cl)Cl)OC1	inactive
CCCCC/C=C\C/C=C\C/C=C\CCCCC(=O)O	inactive
C=C(C)C1CC=C(C)CC1 (configuration not stated)	inactive
NC(=O)CC[C@@H]1NC(=O)[C@H](Cc2ccccc2)NC(=O)[C@H](Cc2ccc(O)cc2)NC(=O)[C@@H](N)CSSC[C@@H](C(=O)N2CCC[C@H]2C(=O)N[C@@H](CCCN=C(N)N)C(=O)NCC(N)=O)NC(=O)[C@H](CC(N)=O)NC1=O	active

Okay, now this compound:
Request: Look up the recorded call for OB(O)O in this test.
Result: inactive

---

tested on: 3D7; assay: qHTS profiling for inhibitors of Plasmodium falciparum proliferation (AID 504749); also: nearly all actives have a fitted effect of over 60% in size; conditions: P. falciparum in erythrocytes, SYBR Green DNA, 72 h; series mostly up to 28.7 µM
Records with an inconclusive call do not appear. Active and inactive are the calls of the source. The call rests on the fitted dose curve; in most records, active means well fitted inhibition curve with a large enough effect; inconclusive means small, poorly fitted or top-dose-only effect; inactive means flat fitted curve, though single readings scatter.
Give one outcome, nothing more. List: 1 = active, 0 = inactive

Below are worked cases with known answers.
>>> print(df.to_string())
                                   compound  discrete_label
0           c1ccc2c(c1)Sc1ccccc1N2CCN1CCCC1               1
1      CCOC(=O)c1cc(-c2ccccc2)nc2ccc(C)cc12               0
2                      F[Si-2](F)(F)(F)(F)F               0
3  CC(CCc1ccc(O)cc1)NCC(O)c1ccc(O)cc1 (stereo not given)               0
4  CS(=O)(=O)c1ccc([C@@H](O)[C@@H](COC(=O)CN)NC(=O)C(Cl)Cl)cc1               0

Request: Each compound tested received a call. Report the one for O=C(O)CCC(=O)c1ccc(-c2ccccc2)cc1 .
Result: 0

Request: Dear colleague, could you share the recorded outcome for Nc1ncnc2c1ncn2[C@H]1CC[C@@H](CO)O1 when you have a moment?
Result: 0

Request: How was O=C(/C=C/c1cccc(F)c1)NC1CC1 classified in this test?
Result: 0

Request: Can you look up the reported call for N[C@H](CC(=O)O)C(=O)O for me?
Result: 0

Request: What was the test verdict on CC/C=C\C/C=C\C/C=C\C/C=C\C/C=C\CCCC(=O)O ?
Result: 0

---

Provide the recorded activity, negative = cell killing for the entries that follow.
assay: Drug repurposing screens with cells derived from glioblastoma tumor samples (AID 1345199); details: GBM patient neurospheres viability, ATP luminescence, 48 h; at 46 µM (top of the series); tumour line A; also: % is scaled to controls: 0 for no effect and ±100 for the full control effect; nearly all actives have a fitted effect of over 40% in size
Results filed as inconclusive are left out.
Numbers only, in %.

Compound	Experimental Readout	Endpoint Value
CO/N=C(\C(=O)N[C@@H]1C(=O)N2C(C(=O)O)=C(CSc3nc(C)c(CC(=O)O)s3)CS[C@H]12)c1csc(N)n1	activity, negative = cell killing	-22
O=C1CCC(=O)N1CO	activity, negative = cell killing	-17
CC(C)NCC(O)COc1ccccc1-n1cccc1 (configuration not stated)	activity, negative = cell killing	15.7
Cc1cc2nc3c(=O)[nH]c(=O)nc-3n(C[C@H](O)[C@H](O)[C@H](O)COP(=O)(O)OP(=O)(O)OC[C@H]3O[C@@H](n4cnc5c(N)ncnc54)[C@H](O)[C@@H]3O)c2cc1C	activity, negative = cell killing	-9.49
CC(C)(Oc1ccc(C2CCCc3ccccc32)cc1)C(=O)O (configuration not stated)	activity, negative = cell killing	-21.9

Your task in this section: give activity, negative = cell killing for each listed record.
1. COC(=O)CCC[N+](C)(C)C
2. C/C=C/C=C/C(=O)O

Result:
1. -30.6
2. -7.83

---

test system: PC26; assay: qHTS profiling for inhibitors of Plasmodium falciparum proliferation (AID 504749); also: nearly all actives have a fitted effect of over 60% in size; conditions: P. falciparum in erythrocytes, SYBR Green DNA, 72 h; series mostly up to 28.7 µM
Inconclusive results are not listed. Calls of active or inactive are those of the source. Calls come from the whole dose curve; as a rule, active = well fitted inhibition curve with a large enough effect; inconclusive = small, poorly fitted or top-dose-only effect; inactive = flat fitted curve, though single readings scatter.
Permitted responses: active, inactive

Study these solved cases before continuing.
Compound	Target Desc	Discrete Label
NCCO/C=C/[C@H](N)C(=O)O	PC26	inactive
COc1cc(NCCCC(C)N)c2ncccc2c1 (configuration not stated)	PC26	active
FCOC(C(F)(F)F)C(F)(F)F	PC26	inactive
CCC(C(=O)NC(N)=O)c1ccccc1 (configuration not stated)	PC26	inactive
CCCCC(CC)CCC(CC(C)C)OS(=O)(=O)O (configuration not stated)	PC26	inactive

Request: Please indicate how the test categorized C[C@H](CCCC(C)(C)O)[C@H]1CC[C@H]2[C@@H]3CC=C4C[C@@H](O)CC[C@]4(C)[C@H]3CC[C@]12C .
Result: inactive

Request: Assay outcome for COc1ccc(C(=O)c2ccc(C)cc2)c(O)c1 : what was it?
Result: inactive

Request: Given Cc1ccc(C(C)(C)c2ccc(C)cc2)cc1 , state the outcome it received in this test.
Result: inactive

Request: For O[C@@H]([C@H](O)[C@H](O)CBr)[C@H](O)CBr , which call appears in the assay record?
Result: inactive

Request: What was the test verdict on CN[C@@H]1[C@H](O[C@H]2[C@H](O[C@H]3[C@H](O)[C@@H](O)[C@H](N=C(N)N)[C@@H](O)[C@@H]3N=C(N)N)O[C@@H](C)[C@]2(O)C=O)O[C@@H](CO)[C@H](O)[C@H]1O ?
Result: inactive

Request: Recorded test outcome, item C=Cc1ccc(S(=O)(=O)O)cc1
Result: inactive

Request: Tell me the assay call for CC(C)OC(=O)Nc1ccc2nc(-c3cscn3)[nH]c2c1 please.
Result: inactive
